Molecular target: protein kinase A (PKA) (Bos taurus)

| compound | IC50 |
| --- | --- |
| CCCCCCCCCCCCCCCC(=O)OC(CC(=O)O)C[N+](C)(C)C.[Cl-] (racemic) [Palmitoyl-DL-carnitine Hydrochloride, palmitoyl-DL-carnitine hydrochloride] | > 300 µM |
